Ref: ChEMBL document CHEMBL1153327

Tested on: UniProt:P20309
Assay remarks: Antagonist activity at human recombinant muscarinic M3 receptor expressed in CHO cells assessed as inhibition of acetylcholine-induced calcium mobilization by FLIPR assay
So basically: is IC50 under 300 nM? Then yes (1). Not under? Then no (0).

Dear colleague, could you confirm whether IC50 of O=S(=O)(NCc1cccc(-c2cccc(CN3CCNCC3)c2)c1)c1ccc2c(c1)OCO2 falls below 300 nM? Thanks.
yes (1)

Dear colleague, could you confirm whether IC50 of CCN1CCN(Cc2cccc(-c3cccc(CNC(=O)c4ccc5c(c4)OCO5)c3)c2)CC1 falls below 300 nM? Thanks.
no (0)

Dear colleague, could you confirm whether IC50 of O=C(NCc1cccc(-c2cccc(CN3CCCNCC3)c2)c1)c1ccc2c(c1)OCO2 falls below 300 nM? Thanks.
no (0)

Dear colleague, could you confirm whether IC50 of Cc1c(CNC(=O)c2ccc3c(c2)OCO3)cccc1-c1cccc(CN2CCNCC2)c1 falls below 300 nM? Thanks.
no (0)

Dear colleague, could you confirm whether IC50 of CCc1cccc(C(=O)NCc2cccc(-c3cccc(CN4CCNCC4)c3)c2)c1 falls below 300 nM? Thanks.
no (0)

Dear colleague, could you confirm whether IC50 of COc1ccccc1C(=O)NCc1cccc(-c2cccc(CN3CCNCC3)c2)c1 falls below 300 nM? Thanks.
no (0)

Dear colleague, could you confirm whether IC50 of O=C(NCc1cccc(-c2cccc(C(=O)N3CCNCC3)c2)c1)c1ccc2c(c1)OCO2 falls below 300 nM? Thanks.
no (0)

Dear colleague, could you confirm whether IC50 of C[C@H]1CN(Cc2cccc(-c3cccc(CNC(=O)c4ccc5c(c4)OCO5)c3)c2)CCN1 falls below 300 nM? Thanks.
yes (1)

Dear colleague, could you confirm whether IC50 of O=C1CN(Cc2cccc(-c3cccc(CNC(=O)c4ccc5c(c4)OCO5)c3)c2)CCN1 falls below 300 nM? Thanks.
no (0)

Dear colleague, could you confirm whether IC50 of COc1ccc(CN2CCNCC2)cc1-c1cccc(CNC(=O)c2ccc3c(c2)OCO3)c1 falls below 300 nM? Thanks.
no (0)

Dear colleague, could you confirm whether IC50 of COC(=O)c1cccc(C(=O)NCc2cccc(-c3cccc(CN4CCNCC4)c3)c2)c1 falls below 300 nM? Thanks.
yes (1)

Dear colleague, could you confirm whether IC50 of COc1ccc(-c2cccc(CNC(=O)c3ccc4c(c3)OCO4)c2)cc1CN1CCNCC1 falls below 300 nM? Thanks.
no (0)

Dear colleague, could you confirm whether IC50 of Cc1cccc(C(=O)NCc2cccc(-c3cccc(CN4CCNCC4)c3)c2)c1 falls below 300 nM? Thanks.
yes (1)

###

Tested on: Muscarinic acetylcholine receptor M3 (Homo sapiens, UniProt P20309)
Sequence (P20309 whole entry): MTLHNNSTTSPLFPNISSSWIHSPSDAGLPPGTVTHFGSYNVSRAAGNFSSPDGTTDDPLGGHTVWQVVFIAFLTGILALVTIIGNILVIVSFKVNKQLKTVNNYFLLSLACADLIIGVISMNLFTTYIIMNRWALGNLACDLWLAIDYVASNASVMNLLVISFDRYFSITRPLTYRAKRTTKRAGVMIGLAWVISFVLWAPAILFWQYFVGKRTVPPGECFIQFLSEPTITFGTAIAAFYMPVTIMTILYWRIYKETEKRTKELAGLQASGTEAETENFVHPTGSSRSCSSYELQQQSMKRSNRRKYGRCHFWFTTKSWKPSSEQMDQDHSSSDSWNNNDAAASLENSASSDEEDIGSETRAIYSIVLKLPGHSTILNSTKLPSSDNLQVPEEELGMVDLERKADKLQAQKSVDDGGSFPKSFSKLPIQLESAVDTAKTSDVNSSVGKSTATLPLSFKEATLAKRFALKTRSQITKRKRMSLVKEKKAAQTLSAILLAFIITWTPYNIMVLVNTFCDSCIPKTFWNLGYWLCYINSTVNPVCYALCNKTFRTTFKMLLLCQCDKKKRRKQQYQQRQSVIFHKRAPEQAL
Assay remarks: Antagonist activity at human recombinant muscarinic M3 receptor expressed in CHO cells assessed as inhibition of acetylcholine-induced calcium mobilization by FLIPR assay
Assay type: functional, cell-based
Assignment: determine reported IC50 for the given compounds.

Identify measured IC50 associated with O=C(NCc1cccc(-c2cccc(CN3CCOCC3)c2)c1)c1ccc2c(c1)OCO2
> 10000 nM

Identify measured IC50 associated with O=C(NCc1cccc(-c2cccc(CN3CCNCC3)c2)c1)c1cccc(O)c1
2000 nM

Identify measured IC50 associated with COc1ccc(C(=O)NCc2cccc(-c3cccc(CN4CCNCC4)c3)c2)cc1
501 nM

Identify measured IC50 associated with C[N+]1(C)CCN(Cc2cccc(-c3cccc(CNC(=O)c4ccc5c(c4)OCO5)c3)c2)CC1
2510 nM

Identify measured IC50 associated with O=C(NCc1cc(-c2cccc(CN3CCNCC3)c2)ccc1F)c1ccc2c(c1)OCO2
251 nM
